Target: PPARγ-RXRα heterodimer (Homo sapiens, UniProt P37231)
Construct: 1.4 kb DNA fragment containing PPARγ gene was recovered from the gel
Sequence (P37231 1-477 isoform P37231-2): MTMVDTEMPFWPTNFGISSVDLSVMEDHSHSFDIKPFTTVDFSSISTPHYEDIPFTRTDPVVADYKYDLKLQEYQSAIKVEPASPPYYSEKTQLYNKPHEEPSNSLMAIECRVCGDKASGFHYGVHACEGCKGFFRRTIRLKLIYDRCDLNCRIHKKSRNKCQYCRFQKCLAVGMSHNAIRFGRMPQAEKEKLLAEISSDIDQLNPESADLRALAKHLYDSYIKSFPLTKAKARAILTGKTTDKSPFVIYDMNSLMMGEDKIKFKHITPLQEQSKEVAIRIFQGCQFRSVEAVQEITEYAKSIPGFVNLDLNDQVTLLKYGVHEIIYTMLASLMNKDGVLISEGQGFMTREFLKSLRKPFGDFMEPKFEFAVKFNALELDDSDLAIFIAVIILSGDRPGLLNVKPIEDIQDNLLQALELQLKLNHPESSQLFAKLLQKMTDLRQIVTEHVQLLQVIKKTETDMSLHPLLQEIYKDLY
Sequence (P19793 1-462 partner): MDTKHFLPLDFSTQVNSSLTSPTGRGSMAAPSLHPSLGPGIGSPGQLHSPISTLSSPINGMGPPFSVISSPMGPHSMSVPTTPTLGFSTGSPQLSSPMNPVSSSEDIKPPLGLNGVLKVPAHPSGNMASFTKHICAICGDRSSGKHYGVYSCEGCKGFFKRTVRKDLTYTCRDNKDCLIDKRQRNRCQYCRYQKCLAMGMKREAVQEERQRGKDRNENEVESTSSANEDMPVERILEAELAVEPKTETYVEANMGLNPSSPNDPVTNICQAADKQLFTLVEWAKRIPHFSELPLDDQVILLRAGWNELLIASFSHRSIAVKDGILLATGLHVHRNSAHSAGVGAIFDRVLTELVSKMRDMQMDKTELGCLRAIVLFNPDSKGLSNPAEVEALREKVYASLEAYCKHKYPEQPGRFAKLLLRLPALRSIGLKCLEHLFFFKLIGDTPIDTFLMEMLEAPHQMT
Assay: PPARγ-RXRα heterodimer ligand activity (luciferase reporter in PPARγ:RXRα:4ERPP/CHO-K1 cells)
Conditions: concentration for 50% of the maximum fold induction of luciferase activity, 48 hours
Description: A PPARγ:RXRα:4ERPP/CHO-K1 cells obtained in Reference Example 5 to be described later were cultured in HAM F12 medium (produced by NISSUI PHARMACEUTICAL CO., LTD.) containing 10% fetal bovine serum (produced by Life Technologies, Inc., USA) and then inoculated to a 96-well white plate (produced by Corning Costar Corporation, USA) at the density of 2×10^4 cells/well, and cultured in a CO2 gas incubator at 37°C overnight. […]
valueKind: EC50 (µM)

1. Cc1oc(-c2ccccc2)nc1COc1ccc2cc(CO/N=C(\CCC(=O)O)c3ccccc3)ccc2c1 [Example 2]
2. Cc1oc(-c2ccccc2)nc1COc1ccc(CO/N=C(\CCC(=O)O)c2ccccc2)cn1 [Example 4]
Problem: Returns: the argument ( 1 or 2 ) having the larger EC50. Write down the label attached to your selection.
Solution: 1
(1: 1.6 µM, 2: 0.0014 µM)
